Assay: in vivo
Settings: mouse, iv, 3 mg/kg
measurement name: Vd (L/kg)
Entry rule: numbers only, all in L/kg.

smiles data	Vd, L/kg
CCCCNc1ncc(-c2ccc(CN3CCC(F)(F)CC3)cn2)c(N[C@H]2CC[C@H](O)CC2)n1	13.7
CCCCNc1ncc(-c2ccc(CNC3CC3)cn2)c(N[C@H]2CC[C@H](O)CC2)n1	39
CCCCNc1ncc(-c2ccc(S(=O)(=O)N3CCOCC3)cn2)c(N[C@H]2CC[C@H](O)CC2)n1	2.9

Switching to the query record.
Query Vd for "CCCCNc1ncc(-c2ccc(CN3CCOCC3)cn2)c(N[C@H]2CC[C@H](O)CC2)n1" 3.9

###

Each entry below carries its reported Cmax.
Assay: in vivo
Settings: mouse, po, 3 mg/kg
Entry rule: numbers only, all in ng/mL.

smiles data	unit abbrev	Cmax
CCCCNc1ncc(-c2ccc(CNC3CC3)cn2)c(N[C@H]2CC[C@H](O)CC2)n1	ng/mL	33

Query Cmax for "CCCCNc1ncc(-c2ccc(S(=O)(=O)N3CCOCC3)cn2)c(N[C@H]2CC[C@H](O)CC2)n1" 13.9

Query Cmax for "CCCCNc1ncc(-c2ccc(CN3CCOCC3)cn2)c(N[C@H]2CC[C@H](O)CC2)n1" 162

Query Cmax for "CCCCNc1ncc(-c2ccc(CN3CCC(F)(F)CC3)cn2)c(N[C@H]2CC[C@H](O)CC2)n1" 71

###

Assay: in vivo
Details: mouse, po, 3 mg/kg
measurement name: Tmax (min)
Entry rule: numbers only, all in min.

Example results:
smiles data	unit abbrev	meas value
CCCCNc1ncc(-c2ccc(CNC3CC3)cn2)c(N[C@H]2CC[C@H](O)CC2)n1	min	30
CCCCNc1ncc(-c2ccc(CN3CCC(F)(F)CC3)cn2)c(N[C@H]2CC[C@H](O)CC2)n1	min	15
CCCCNc1ncc(-c2ccc(S(=O)(=O)N3CCOCC3)cn2)c(N[C@H]2CC[C@H](O)CC2)n1	min	15

Switching to the query record.
Query Tmax for "CCCCNc1ncc(-c2ccc(CN3CCOCC3)cn2)c(N[C@H]2CC[C@H](O)CC2)n1" 15

###

Species on record: Mus musculus
Settings: in vivo, po, 3 mg/kg
Each entry below carries its reported F.

smiles data	measurement name	meas value
CCCCNc1ncc(-c2ccc(CNC3CC3)cn2)c(N[C@H]2CC[C@H](O)CC2)n1	F	27%
CCCCNc1ncc(-c2ccc(CN3CCC(F)(F)CC3)cn2)c(N[C@H]2CC[C@H](O)CC2)n1	F	55%
CCCCNc1ncc(-c2ccc(S(=O)(=O)N3CCOCC3)cn2)c(N[C@H]2CC[C@H](O)CC2)n1	F	1.3%

Query F for "CCCCNc1ncc(-c2ccc(CN3CCOCC3)cn2)c(N[C@H]2CC[C@H](O)CC2)n1" 23%

###

Each entry below carries its reported clearance.
Assay: in vivo
Conditions: mouse, iv, 3 mg/kg
Entry rule: numbers only, all in mL/min/kg.

smiles data	clearance / mL/min/kg
CCCCNc1ncc(-c2ccc(S(=O)(=O)N3CCOCC3)cn2)c(N[C@H]2CC[C@H](O)CC2)n1	134

Query clearance for "CCCCNc1ncc(-c2ccc(CNC3CC3)cn2)c(N[C@H]2CC[C@H](O)CC2)n1" 130

Query clearance for "CCCCNc1ncc(-c2ccc(CN3CCC(F)(F)CC3)cn2)c(N[C@H]2CC[C@H](O)CC2)n1" 123

Query clearance for "CCCCNc1ncc(-c2ccc(CN3CCOCC3)cn2)c(N[C@H]2CC[C@H](O)CC2)n1" 62.2

The reported measurements were obtained from ChEMBL document CHEMBL3091310.
